The reported numbers originate from ChEMBL document CHEMBL4689842.

Measured Population Healthy Nuclei (%) of individual entries
# Tested on: HEK-293T
# EXPERIMENT_NOTES: Multiplex assay against HEK293T
# Format: toxicity, cell-based
# CONDITION_PARAMETERS: human, 12 h, 1 µM, compound concentration 1 uM, replicate 2
Give the number; % is assumed, so skip it.

{"COMPOUND": "Cc1cc2c(cc1N1C(=O)c3cccc4c(CCCO)ccc(c34)C1=O)n(C)c(=O)n2C", "SYSTEM_UNDER_TEST": "HEK-293T", "READOUT_UNITS": "%", "Population Healthy Nuclei (%)": 50}

If you can, please state the reported Population Healthy Nuclei (%) value of CC(C)N1CCC(C)(C)c2cc(C#Cc3ccc(C(=O)O)cc3)ccc21 .
54

If you can, please state the reported Population Healthy Nuclei (%) value of CNc1oc(-c2cccc3ccccc23)nc1C#N .
61

If you can, please state the reported Population Healthy Nuclei (%) value of CCn1c(-c2nonc2N)nc2cnc(Oc3cccc(NC(=O)c4ccc(OCCN5CCOCC5)cc4)c3)cc21 [GSK-269962A] .
44

* * *

Measured Growth Rate of individual entries
# Test system: U2OS
# EXPERIMENT_NOTES: Incucyte cell viability with U2OS; note: filed as whole numbers so only -1 and 0 and 1 occur
# Type: toxicity, cell-based
# CONDITION_PARAMETERS: human, 0 h, 10 µM, compound concentration 10 uM, replicate number 1, timepoint 0 hours
# answer = number (no unit)

Consider the following illustrative entries.
{"COMPOUND": "CCc1cc2c(c(CC)n1)CCC(=O)N2Cc1ccc(-c2ccccc2-c2nnn[nH]2)cc1.Cl", "Growth Rate": 1}
{"COMPOUND": "Nc1ccc(C(=O)Nc2cccc(-c3nc(N4CCOCC4)c4oc5ncccc5c4n3)c2)cn1", "Growth Rate": 0}
{"COMPOUND": "CN(C(=O)Cc1ccc(Cl)c(Cl)c1)C(CN1CCCC1)c1cccc(OCC(=O)O)c1.Cl (stereo not given)", "Growth Rate": 0}
{"COMPOUND": "CC(C)Oc1ccc(C(=O)N[C@H](CNC(=O)CN(C)C)Cc2ccc(-c3cn4cccc([C@H](C)O)c4n3)cc2)cc1Cl [GSK-923295A]", "Growth Rate": 0}

If you can, please state the reported Growth Rate value of COc1cccc(OC)c1-c1cc(C(=O)NC2(C(=O)O)C3CC4CC(C3)CC2C4)nn1-c1ccnc2cc(Cl)ccc12 (stereo not given) [REMINERTANT] .
1

If you can, please state the reported Growth Rate value of Cc1cccc(NC(=O)N[C@@H]2N=C(c3ccccc3)c3ccccc3N(C)C2=O)c1 [L-365260] .
0

If you can, please state the reported Growth Rate value of CS(=O)(=O)c1cc(C2(NC(=O)c3cncc4c3cnn4-c3ccc(F)cc3)CC2)ccn1 [BI 639667] .
0

If you can, please state the reported Growth Rate value of CCCCC[C@H](O)/C=C/[C@@H]1[C@@H](C/C=C\CCCC(=O)O)[C@@H](O)C[C@H]1O [DINOPROST] .
0

* * *

# Tested on: Fibroblast
# EXPERIMENT_NOTES: Multiplex assay against human fibroblast
# Assay type: toxicity, cell-based
# CONDITION_PARAMETERS: 12 h, 1 µM, compound concentration 1 uM, replicate 1
MEASURED_PARAMETER: Population Mitochondria Different-Phenotype (%)
Give the number; % is assumed, so skip it.

Consider the following illustrative entries.
{"COMPOUND": "CN(C)C/C=C/C(=O)Nc1cc2c(Nc3ccc(F)c(Cl)c3)ncnc2cc1O[C@H]1CCOC1.O=C(O)/C=C\\C(=O)O.O=C(O)/C=C\\C(=O)O [AFATINIB DIMALEATE]", "EXPERIMENTAL_RESULT": 3}
{"COMPOUND": "CNC(=O)c1nn(C)c2c1C(C)(C)Cc1cnc(Nc3ccc(N4CCN(C)CC4)cc3)nc1-2", "EXPERIMENTAL_RESULT": 7}
{"COMPOUND": "CCOc1cc(N2CCC(O)CC2)ccc1Nc1ncc2c(n1)N(C1CCCC1)CCC(=O)N2C", "EXPERIMENTAL_RESULT": 7}

In the following, a different compound is considered.
API: value(readout= Population Mitochondria Different-Phenotype (%), system= Fibroblast, query= CCOc1cc2ncc(C#N)c(Nc3ccc(OCc4cccc(F)c4)c(Cl)c3)c2cc1NC(=O)/C=C/CN(C)C )
7

* * *

Measured Total Cell Count of individual entries
# Test system: HEK-293T
# EXPERIMENT_NOTES: Multiplex assay against HEK293T
# Format: toxicity, cell-based
# CONDITION_PARAMETERS: human, 24 h, 1 µM, compound concentration 1 uM, replicate 2
# answer = number (no unit)

{"COMPOUND": "CC(=O)c1cc(-c2cc(C(=O)NC3CC3)ccc2C)c2ncccn12", "MEASURED_PARAMETER": "Total Cell Count", "EXPERIMENTAL_RESULT": 349}
{"COMPOUND": "CCOc1cc(N2CCC(O)CC2)ccc1Nc1ncc2c(n1)N(C1CCCC1)CCC(=O)N2C", "MEASURED_PARAMETER": "Total Cell Count", "EXPERIMENTAL_RESULT": 2649}
{"COMPOUND": "CC(C)N1CCC(C)(C)c2cc(C#Cc3ccc(C(=O)O)cc3)ccc21", "MEASURED_PARAMETER": "Total Cell Count", "EXPERIMENTAL_RESULT": 168}

In the following, a different compound is considered.
API: value(readout= Total Cell Count, system= HEK-293T, query= N#Cc1cnc(Nc2cc(NC[C@H]3CNCCO3)c(C(F)(F)F)cn2)cn1 [SRA-737] )
3420

* * *

Measured Population Pyknosed Nuclei (%) of individual entries
# Test system: U2OS
# EXPERIMENT_NOTES: Multiplex assay against U2OS
# Format: toxicity, cell-based
# CONDITION_PARAMETERS: human, 12 h, 10 µM, compound concentration 10 uM, replicate 1
Express the reported value numerically, then name its unit.

Consider the following illustrative entries.
{"MOLECULE": "Cl.Cl.NC1(c2ccc(-c3nc4ccn5c(=O)[nH]nc5c4cc3-c3ccccc3)cc2)CCC1", "Population Pyknosed Nuclei (%)": "42%"}
{"MOLECULE": "N#Cc1cnc(Nc2cc(NC[C@H]3CNCCO3)c(C(F)(F)F)cn2)cn1", "Population Pyknosed Nuclei (%)": "6%"}
{"MOLECULE": "Cl.Cl.Nc1ncnc2c1c(-c1cccc(OCc3ccccc3)c1)cn2[C@H]1C[C@@H](CN2CCC2)C1", "Population Pyknosed Nuclei (%)": "35%"}
{"MOLECULE": "COc1cc2c(Nc3ccc(NC(=O)c4ccccc4)cc3)ncnc2cc1OCCCN1CCOCC1", "Population Pyknosed Nuclei (%)": "7%"}

If you can, please state the reported Population Pyknosed Nuclei (%) value of Nc1nc2c(c(N3CCNCC3)n1)CCC1=C2[C@@H]2CCCC[C@@H]2O1 .
24%

If you can, please state the reported Population Pyknosed Nuclei (%) value of Cc1cc2c(cc1N1C(=O)c3cccc4c(CCCO)ccc(c34)C1=O)n(C)c(=O)n2C .
15%

If you can, please state the reported Population Pyknosed Nuclei (%) value of CN(C)C/C=C/C(=O)Nc1cc2c(Nc3ccc(F)c(Cl)c3)ncnc2cc1O[C@H]1CCOC1.O=C(O)/C=C\C(=O)O.O=C(O)/C=C\C(=O)O [AFATINIB DIMALEATE] .
26%

If you can, please state the reported Population Pyknosed Nuclei (%) value of COc1cc2c(NC3CCN(C(C)C)CC3)nc(N3CCC(F)(F)CC3)nc2cc1OCCCN1CCCC1 .
14%

* * *

# Tested on: Fibroblast
# EXPERIMENT_NOTES: Multiplex assay against human fibroblast
# Type: toxicity, cell-based
# CONDITION_PARAMETERS: 12 h, 10 µM, compound concentration 10 uM, replicate 2
Returns true (1) if the recorded Total Cell Count is greater than or equal to 50, and false (0) otherwise.

Worked set:
{"MOLECULE": "CCn1c(-c2nonc2N)nc2cnc(Oc3cccc(NC(=O)c4ccc(OCCN5CCOCC5)cc4)c3)cc21 [GSK-269962A]", "SYSTEM_UNDER_TEST": "Fibroblast", "GROUP_LABEL": "true (1)"}
{"MOLECULE": "Cc1cn(-c2cc(NC(=O)c3ccc4c(c3)CN(c3cncnc3)C[C@@H]4C)cc(C(F)(F)F)c2)cn1", "SYSTEM_UNDER_TEST": "Fibroblast", "GROUP_LABEL": "true (1)"}
{"MOLECULE": "Cc1nc(Cc2cccc(C(F)(F)F)c2)sc1-c1ccc(C(N)=O)nc1 [TP-024n]", "SYSTEM_UNDER_TEST": "Fibroblast", "GROUP_LABEL": "false (0)"}
{"MOLECULE": "Nc1ccc(C(=O)Nc2cccc(-c3nc(N4CCOCC4)c4oc5ncccc5c4n3)c2)cn1", "SYSTEM_UNDER_TEST": "Fibroblast", "GROUP_LABEL": "true (1)"}
{"MOLECULE": "Cc1cc2c(cc1N1C(=O)c3cccc4c(CCCO)ccc(c34)C1=O)n(C)c(=O)n2C", "SYSTEM_UNDER_TEST": "Fibroblast", "GROUP_LABEL": "true (1)"}

Is it the case that CCCn1c(=O)c2[nH]c(C34CC5CC(CC3C5)C4)nc2n(CCC)c1=O has Total Cell Count reaching or exceeding 50?
true (1)

Is it the case that CCC(=O)O[C@]1(C(=O)SCF)[C@H](C)C[C@H]2[C@@H]3C[C@H](F)C4=CC(=O)C=C[C@]4(C)[C@@]3(F)[C@@H](O)C[C@@]21C [FLUTICASONE PROPIONATE] has Total Cell Count reaching or exceeding 50?
false (0)
